This listing pairs compounds with measured heart frequency Δ.
system: mongrel cats; assay: Inotropic and heart-circulatory effectiveness on narcotised cats, intravenous; format: in vivo, cat; settings: 1.00 mg/kg i.v.; 6 animals
// units = min⁻¹; emit number, no label

# count of solved cases: 5
# compound, experimental_value
data = [
    ("O=[N+]([O-])O[C@H]1CO[C@H]2[C@@H]1OC[C@H]2NCC(O)COc1cccc2ccccc12 (some centres unmarked) [Example 55]", -1.3),
    ("N#Cc1ccccc1OCC(O)CN[C@H]1CO[C@H]2[C@@H]1OC[C@@H]2O[N+](=O)[O-] (some centres unmarked) [Example 50]", 0),
    ("O=[N+]([O-])O[C@H]1CO[C@H]2[C@@H]1OC[C@@H]2NCCCc1ccccc1 [Example 28]", -1.0),
    ("O=[N+]([O-])O[C@H]1CO[C@H]2[C@@H]1OC[C@@H]2NCC(O)COc1cccc2ccccc12 (some centres unmarked) [Example 54]", -12.0),
    ("O=[N+]([O-])O[C@H]1CO[C@H]2[C@@H]1OC[C@@H]2NCCCCc1ccccc1 [Example 29]", -11.7),
]

Which heart frequency Δ value belongs to O=[N+]([O-])O[C@H]1CO[C@H]2[C@@H]1OC[C@@H]2NCC(O)COc1cccc(C(F)(F)F)c1 (some centres unmarked) [Example 52] ? -1.0

Subsequent entry: CCOc1ccccc1OCC(O)CN[C@H]1CO[C@H]2[C@@H]1OC[C@@H]2O[N+](=O)[O-] (some centres unmarked) [Example 47] -5.0

Subsequent entry: O=[N+]([O-])O[C@H]1CO[C@H]2[C@@H]1OC[C@@H]2NCCCCCc1ccccc1 [Example 30] -2.3

Subsequent entry: CN(CCCOc1ccccc1)[C@H]1CO[C@H]2[C@@H]1OC[C@@H]2O[N+](=O)[O-] [Example 34] -3.0

Subsequent entry: O=[N+]([O-])O[C@H]1CO[C@H]2[C@@H]1OC[C@@H]2NCCCOc1ccccc1 [Example 36] -8.0

Subsequent entry: C=CCc1ccccc1OCC(O)CN[C@H]1CO[C@H]2[C@@H]1OC[C@@H]2O[N+](=O)[O-] (some centres unmarked) [Example 49] -5.6
